ASSAY_OVERVIEW: in vitro
SETUP_CONDITIONS: mouse, microsomes, pH 7.4, MLM CLint, mouse liver microsomes
Label 1 (yes) when microsomal CLint at 0.5 μM is strictly below 800 µL/min/mg; otherwise label 0 (no).

Answered examples (10):
COMPOUND	GROUP
O=S(=O)(NCc1ccccc1)c1ccccc1	1 (yes)
COc1ccc(OC)c(S(=O)(=O)N(Cc2ccc(F)cc2)c2ccc(F)cc2)c1	1 (yes)
COc1ccc(Cl)cc1S(=O)(=O)N(Cc1ccccc1)OC	0 (no)
[2H]C([2H])([2H])Oc1ncccc1S(=O)(=O)N(Cc1ccc(F)cc1)Cc1ccc(F)cc1	1 (yes)
COCCN(C(C)=O)c1ccc(S(=O)(=O)N(CCOC)Cc2ccccc2)cc1	1 (yes)
COCCN(Cc1ccccc1)S(=O)(=O)c1c(OC)ccc(Cl)c1S(C)(=O)=O	1 (yes)
CCN(Cc1ccccc1)S(=O)(=O)c1cc(F)ccc1N1CCCC1	0 (no)
COc1ccc([S+](C)[O-])cc1S(=O)(=O)N(Cc1ccccc1)Cc1ccccc1 (stereo not shown)	1 (yes)
COc1ccc(S(N)(=O)=O)cc1S(=O)(=O)N(Cc1ccccc1)Cc1ccccc1	1 (yes)
CN(C)CCOc1ccc(F)cc1S(=O)(=O)N(Cc1ccc(F)cc1)Cc1ccc(F)cc1	0 (no)

Exercise: A record lists COc1ccc(C#N)cc1S(=O)(=O)N(Cc1ccc(F)cc1)Cc1oc(C)nc1C . Is its microsomal CLint at 0.5 μM below 800 µL/min/mg?
Key: 1 (yes)

Exercise: A record lists COc1ccc(OC)c(S(=O)(=O)N(Cc2ccc(F)cc2)c2ccc(F)cn2)c1 . Is its microsomal CLint at 0.5 μM below 800 µL/min/mg?
Key: 0 (no)

Exercise: A record lists CCC(Cc1ccccc1)[S+]([O-])c1nc(C)cc(C)c1C#N (stereo not shown) . Is its microsomal CLint at 0.5 μM below 800 µL/min/mg?
Key: 0 (no)

Exercise: A record lists CCN(Cc1ccccc1)S(=O)(=O)c1ccc(NC(C)=O)cc1 . Is its microsomal CLint at 0.5 μM below 800 µL/min/mg?
Key: 1 (yes)

Exercise: A record lists COc1ccc(OC)c(S(=O)(=O)N(Cc2ccc(F)cc2)Cc2ccccn2)c1 . Is its microsomal CLint at 0.5 μM below 800 µL/min/mg?
Key: 1 (yes)

====

ASSAY_OVERVIEW: in vitro
SETUP_CONDITIONS: human, THP-1 cells differentiated with PMA
In this section, each of the compounds is paired with its reported CC50 at 120 h.

# example entries with known answers
COMPOUND	MEASURED_VALUE
O=S1(=O)c2ccccc2[C@H](O)[C@@H](Cc2ccccc2)N1Cc1ccccc1 [DNDI0003578378]	39.7 µM
COc1ccc(C(=O)N2CCOCC2)cc1S(=O)(=O)N(Cc1ccccc1)CC(C)(C)C [DNDI0003407876]	> 64 µM

Exercise: Report CC50 at 120 h for COc1ccc(S(=O)(=O)N2Cc3ccccc3CC2C(=O)NCc2ccccc2)cc1 (stereo not shown) [DNDI0003338988]
Key: > 50 µM

Exercise: Report CC50 at 120 h for COc1ccc(C(=O)N2CCOCC2)cc1S(=O)(=O)N(Cc1ccccc1)Cc1cnc(C(F)(F)F)nc1 [DNDI0003425509]
Key: > 64 µM
